Entries with reported Ki on Carbonic anhydrase 2 (Homo sapiens)
One number for each entry, in nM.

{"smilesCode": "NS(=O)(=O)c1ccc(-n2ncccc2=O)cc1", "Ki (nM)": 8.2}

# return Ki for each item in the list
1. NS(=O)(=O)c1ccc(-n2ncc(N3CCCCCC3)cc2=O)cc1
2. NS(=O)(=O)c1ccc(-n2nc(-c3ccc4c(c3)OCO4)ccc2=O)cc1
3. CCN1CCN(c2cnn(-c3ccc(S(N)(=O)=O)cc3)c(=O)c2Cl)CC1
4. NS(=O)(=O)c1ccc(-n2ncc(N3CCOCC3)c(Cl)c2=O)cc1

0.08
1.4
0.29
0.07

----------
Entries with reported Ki on Carbonic anhydrase 9 (Homo sapiens, UniProt Q16790)
Answers are plain numbers, in nM.

Example entries and their recorded answers appear below.
{"smilesCode": "NS(=O)(=O)c1ccc(-n2ncc(N3CCOCC3)c(Cl)c2=O)cc1", "Ki / nM": 0.58}
{"smilesCode": "NS(=O)(=O)c1ccc(-n2ncc(NCc3ccccc3)c(Cl)c2=O)cc1", "Ki / nM": 0.67}

Now consider the entry below.
Using Carbonic anhydrase 9 (Homo sapiens, UniProt Q16790) as the test system, report measured Ki of `CCN1CCN(c2cnn(-c3ccc(S(N)(=O)=O)cc3)c(=O)c2Cl)CC1` .
0.7
